The reported measurements were obtained from ChEMBL document CHEMBL1144910.

As shown below, each of these compounds has a reported EC50 value.
Tested on: CCRF-CEM
experiment_summary: Effective concentration required to inhibit the replication of HIV-1 by 50% in CEM/TK cells
Type: functional, cell-based
settings: Homo sapiens
Respond numerically; units are µM and should not be typed.

Examples with their reported EC50 follow.
| compound | EC50, µM |
| --- | --- |
| Cc1cn([C@H]2C[C@H](N=[N+]=[N-])[C@@H](COP(=O)(OCCSC(=O)C(C)(C)C)Oc3ccc(C[C@H](NC(=O)OC(C)(C)C)C(=O)N(C(=O)OC(C)(C)C)C(=O)OC(C)(C)C)cc3)O2)c(=O)[nH]c1=O (stereo not given in full) | 4 |
| Cc1cn([C@H]2C[C@H](N=[N+]=[N-])[C@@H](COP(=O)(OCCSC(=O)C(C)(C)C)Oc3ccc(C[C@H](N)CO)cc3)O2)c(=O)[nH]c1=O (stereo not given in full) | 7 |
| CC(=O)N[C@@H](Cc1ccc(OP(=O)(OCCSC(=O)C(C)(C)C)OC[C@H]2O[C@@H](n3cc(C)c(=O)[nH]c3=O)C[C@@H]2N=[N+]=[N-])cc1)C(N)=O (stereo not given in full) | 8 |

Now, please, on to the next compound.
Requested read-out: EC50. Entry: Cc1cn([C@H]2C[C@H](N=[N+]=[N-])[C@@H](COP(=O)(OCCSC(=O)C(C)(C)C)Oc3ccc(C[C@H](N)C(=O)O)cc3)O2)c(=O)[nH]c1=O (stereo not given in full)
29
